# Method summary: A qHTS for Small Molecule Inhibitors of Shiga Toxin
# Stated conditions: Vero cells, Shiga toxin protein synthesis inhibition reporter; at 38.7 µM
About 27,000 (9.3%) of roughly 290,000 compounds were called active. No stated cut-off is given here; in the data, active means inhibition mostly above about 28% (no sharp cut-off); inactive means mostly below about 43%. Many of the other results were omitted from the sample, so actives are more common in it than they were.
Allowed answers: active, inactive

Lookup: What call does the record list for CCCCNC(=O)CSc1nnc(-c2ccco2)n1C ?
Found: inactive

Lookup: What call does the record list for Nc1c(C(=O)c2cccs2)sc2nsc(SCCN3CCCCC3)c12 ?
Found: active

Lookup: What call does the record list for CC(C)(C)OC(=O)NC(Cc1ccccc1)C(=O)NC(CSC1CCCCO1)C(=O)NN (configuration not stated) ?
Found: inactive

Lookup: What call does the record list for C/C(=N\NC(=O)c1ccc2ccccc2c1)c1cccnc1 ?
Found: inactive

Lookup: What call does the record list for Cc1[nH]c2ccc(C(=O)N3CCN(C)CC3)cc2c1C ?
Found: active

Lookup: What call does the record list for COc1ccc2[nH]c(C(=O)N3CCN(C)CC3)c(C)c2c1 ?
Found: inactive

Lookup: What call does the record list for Fc1ccc(/C=N/n2c(COc3ccccc3)n[nH]c2=S)cc1 ?
Found: inactive

Lookup: What call does the record list for Cn1c(=O)c2c(nc(OCc3cccnc3)n2Cc2ccccc2)n(C)c1=O ?
Found: active

Lookup: What call does the record list for Nc1cc(N)nc(SCc2cccc(F)c2)n1 ?
Found: active

Lookup: What call does the record list for Cn1c(=O)c2c(nc(NCCc3ccccc3)n2Cc2ccccc2)n(C)c1=O ?
Found: inactive

Lookup: What call does the record list for Cn1c(N2CCOCC2)c(C=O)c2ccccc21 ?
Found: inactive

Lookup: What call does the record list for Cc1ccc(S(=O)(=O)NCCSC(C)(C)C)cc1 ?
Found: inactive

Lookup: What call does the record list for COc1cc(/C=N/n2c(C)n[nH]c2=S)ccc1OCc1ccccc1 ?
Found: active

Lookup: What call does the record list for COCCNC(=O)c1ccccc1NS(=O)(=O)c1ccc(C)c([N+](=O)[O-])c1 ?
Found: inactive

Lookup: What call does the record list for Cc1[nH]c2ccccc2c1C(=O)CN1CC(C)CC(C)C1 (configuration not stated) ?
Found: inactive

Lookup: What call does the record list for CC(C)(C)c1ccc(NC(=O)NCc2ccco2)cc1 ?
Found: active

Lookup: What call does the record list for COc1ccccc1-c1cc(C(=O)NCCCn2ccnc2)no1 ?
Found: inactive

Lookup: What call does the record list for COCCn1c(=NC(=O)c2ccccc2[N+](=O)[O-])sc2cc(S(C)(=O)=O)ccc21 ?
Found: active

Lookup: What call does the record list for O=C(NC1CCCC1)C(c1ccco1)N(C(=O)c1csnn1)c1ccccc1 (configuration not stated) ?
Found: inactive

Lookup: What call does the record list for CC(Sc1nnc(-c2ccccc2F)n1C1CC1)C(N)=O (configuration not stated) ?
Found: inactive

Lookup: What call does the record list for COc1ccc(-c2cc(C(=O)NCCCn3ccnc3)no2)cc1 ?
Found: inactive

Lookup: What call does the record list for O=C(NCCCn1ccnc1)c1cc(-c2ccccc2)on1 ?
Found: active

Lookup: What call does the record list for CC(C)(C)NC(=O)c1cc(NC(=O)c2ccco2)cc(NC(=O)c2ccco2)c1 ?
Found: inactive

Lookup: What call does the record list for CCOc1ccc(-n2c(SCC(=O)Nc3cc(C(=O)O)ccc3Cl)nc3ccccc3c2=O)cc1 ?
Found: inactive

Lookup: What call does the record list for CNC(=O)c1sc(Nc2ccc(OCc3ccccc3)cc2)nc1C ?
Found: inactive

Lookup: What call does the record list for CC(C)(C)NC(=O)NCc1ccco1 ?
Found: inactive

Lookup: What call does the record list for CSc1ccc(C#N)cc1NC(=O)c1cccc(Cl)c1 ?
Found: inactive

Lookup: What call does the record list for COc1cc(NS(=O)(=O)c2ccc(NC(=S)NC(=O)c3ccccc3)cc2)nc(OC)n1 ?
Found: inactive

Lookup: What call does the record list for CCN(CC)CCNC(=O)Cn1cnc2sc(C)c(S(=O)(=O)N3CCOCC3)c2c1=O ?
Found: inactive

Lookup: What call does the record list for O=C(O)c1cc(S(=O)(=O)N(Cc2ccccc2)c2cccc(C(F)(F)F)c2)ccc1Cl ?
Found: inactive

Lookup: What call does the record list for Cc1nn2c(NCCN(C)C)c3c(nc2c1-c1ccccc1)CCC3 ?
Found: inactive

Lookup: What call does the record list for Cc1ccc(C)c(S(=O)(=O)N2CCCOC2CNC(=O)C(=O)NC2CCCCC2)c1 (configuration not stated) ?
Found: inactive

Lookup: What call does the record list for CCOc1ccc(S(=O)(=O)N2CCC(C(=O)NCc3ccccn3)CC2)cc1Cl ?
Found: inactive

Lookup: What call does the record list for CC(=O)c1ccc2c(c1)c1ccccc1n2CC(C)C ?
Found: inactive

Lookup: What call does the record list for O=c1oc2ccccc2c(NC2CCCCC2)c1NS(=O)(=O)c1ccc(Cl)cc1 ?
Found: inactive

Lookup: What call does the record list for Cc1ccccc1OCC(=O)NCC(=O)OCC(=O)c1ccc2ccccc2c1 ?
Found: inactive

Lookup: What call does the record list for COc1cccc(CCNC(=O)c2cccc(NC(=O)C3=C(C)OCCS3)c2)c1 ?
Found: inactive

Lookup: What call does the record list for CN1CCN(CCCCOc2cccc3ccccc23)CC1 ?
Found: inactive

Lookup: What call does the record list for O=C(CCCO)N/N=C/c1cc(Br)ccc1O ?
Found: inactive

Lookup: What call does the record list for Nc1cc(N)nc(SCc2ccc(Cl)cc2)n1 ?
Found: inactive

Lookup: What call does the record list for O=C(NC(=S)NC1CCS(=O)(=O)C1)c1cccc([N+](=O)[O-])c1 (configuration not stated) ?
Found: inactive

Lookup: What call does the record list for O=C(Cn1c(NCCO)nc2ccccc21)c1ccc(Cl)cc1Cl ?
Found: inactive

Lookup: What call does the record list for Cc1cc(NC(=O)COc2ccc(Cl)cc2Cl)n(CCC#N)n1 ?
Found: inactive

Lookup: What call does the record list for O=C(O)C1CCCN1C1=NS(=O)(=O)c2ccccc21 (configuration not stated) ?
Found: inactive

Lookup: What call does the record list for CC(=O)c1ccc2c(ccc3ccccc32)c1 ?
Found: active

Lookup: What call does the record list for CCOC(=O)CSc1nnc(-c2ccco2)n1C ?
Found: inactive

Lookup: What call does the record list for CCOc1ccccc1N1CCN(C(=O)c2ccc3[nH]c(C)c(C)c3c2)CC1 ?
Found: inactive
